Molecular target: Avi-KRAS WT (1-169) GppNHp/RAF1 RBD-3xFLAG (52-151) (Homo sapiens)
Construct: Avi-KRAS WT (1-169)
Sequence (P01116 1-169 isoform P01116-2): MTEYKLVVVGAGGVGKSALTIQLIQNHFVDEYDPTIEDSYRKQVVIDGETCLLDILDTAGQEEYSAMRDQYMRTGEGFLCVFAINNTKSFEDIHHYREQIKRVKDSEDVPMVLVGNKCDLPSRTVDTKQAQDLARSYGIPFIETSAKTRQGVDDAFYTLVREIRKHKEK
Assay: Raf1-KRAS WT-GppNHP disruption HTRF assay (Biological Example 1)
Type: binding
Settings: KRAS WT-GppNHp/RAF1 RBD HTRF
Readout Kind: IC50

Observe how each entry below is paired with its result.
Molecule	IC50
CCN(c1nc(OC[C@@]23CCCN2C[C@H](F)C3)nc2c(F)c(-c3ccc(F)c4sc(N)c(C#N)c34)c(C(F)(F)F)cc12)[C@H]1C[C@@H]2COC(=O)N2C1 (atropisomer, axis not shown)	< 100 nM
CCN(c1nc(OC[C@@]23CCCN2C[C@H](F)C3)nc2c(F)c(-c3ccc(F)c4sc(N)c(C#N)c34)c(C(F)(F)F)cc12)[C@H]1CCN(C(=O)OC)C1 (atropisomer, axis not shown) [Compound 541]	< 100 nM

Now examine the next entry.
// query IC50 value for entry CCC(=O)N1CC[C@@](C)(N(C)c2nc(OC[C@@]34CCCN3C[C@H](F)C4)nc3c(F)c(-c4ccc(F)c5sc(N)c(C#N)c45)c(C(F)(F)F)cc23)[C@H]1C 1000 to 10000 nM

---

Molecular target: Avi-KRAS WT (1-169) GppNHp/RAF1 RBD-3xFLAG (52-151) (Homo sapiens)
Construct: Avi-KRAS WT (1-169)
Experiment: Raf1-KRAS WT-GppNHP disruption HTRF assay (Biological Example 1)
Assay type: binding
Conditions: KRAS WT, GppNHp-loaded; Table 11
Readout Kind: IC50

Molecule	IC50
Nc1nc2c(-c3c(C(F)(F)F)cc4c(N5CCC(CO)CC5)nc(OCC56CCCN5CCC6)nc4c3F)ccc(F)c2s1 [Compound 43]	100 to 1000 nM
N#Cc1c(N)sc2c(F)ccc(-c3c(C(F)(F)F)cc4c(N5C[C@@H]6C[C@H]5CO6)nc(OC[C@@]56CCCN5C[C@H](F)C6)nc4c3F)c12 [Compound 259]	100 to 1000 nM

Now examine the next entry.
// query IC50 value for entry CC(=O)N1CC[C@H](N(C)c2nc(OC[C@@H]3CCCN3C)nc3c(F)c(-c4ccc(F)c5sc(N)c(C#N)c45)c(C(F)(F)F)cc23)[C@@H]1C [Compound 239] > 10000 nM

---

Molecular target: Avi-KRAS G12V (2-169) GTP/RAF1 RBD-3xFLAG (51-131) (Homo sapiens, UniProt P01116, G12V)
Construct: Avi-KRAS G12V (2-169)
Test: Raf1-KRAS G12V-GTP disruption HTRF assay (Biological Example 3)
Type: binding
Conditions: KRAS G12V, GTP-loaded
Overview of recorded IC50 for various molecules

Observe how each entry below is paired with its result.
Molecule	IC50
CN(C)C(=O)c1cc2n(n1)CCN(c1nc(OC[C@@]34CCCN3C[C@H](F)C4)nc3c(F)c(-c4ccc(F)c5sc(N)c(C#N)c45)c(C(F)(F)F)cc13)C2	100 to 1000 nM
CCN(c1nc(OC[C@@]23CCCN2C[C@H](F)C3)nc2c(F)c(-c3ccc(F)c4sc(N)c(C#N)c34)c(C(F)(F)F)cc12)[C@H]1CCN(C(=O)N2CC3(CCO3)C2)C1 (atropisomer, axis not shown)	100 to 1000 nM

Now examine the next entry.
// query IC50 value for entry N#Cc1c(N)sc2c(F)ccc(-c3c(C(F)(F)F)cc4c(N5CCc6ccncc6C5)nc(OC[C@@]56CCCN5C[C@H](F)C6)nc4c3F)c12 > 10000 nM

---

Overview of recorded IC50 for various compounds
Target: Avi-KRAS G12V (1-169) GppNHp/RAF1 RBD-3xFLAG (52-151) (Homo sapiens, UniProt P01116, G12V)
Construct: Avi-KRAS G12V (1-169)
Sequence (P01116 1-169 isoform P01116-2 G12V): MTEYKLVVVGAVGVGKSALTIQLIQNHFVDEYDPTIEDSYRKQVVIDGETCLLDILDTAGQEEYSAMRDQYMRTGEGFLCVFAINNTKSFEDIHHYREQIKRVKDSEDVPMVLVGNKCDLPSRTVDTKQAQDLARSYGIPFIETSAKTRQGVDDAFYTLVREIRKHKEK
Experiment: Raf1-KRAS G12V-GppNHP disruption HTRF assay (Biological Example 1)
Format: binding
Conditions: KRAS G12V-GppNHp/RAF1 RBD HTRF
Procedure: A protein:protein interaction (PPI) Homogeneous Time Resolved Fluorescence (HTRF) assay was used to determine the effectiveness of compounds of the present disclosure in disrupting KRAS protein and effector RAF1 binding. The assay buffer included: 50 mM Tris pH 7.5, 100 mM NaCl, 5 mM MgCl2, 0.1% BSA, 0.01% Tween, and 10% DMSO. The bead buffer included: 50 mM Tris pH 7.5, and 0.01% Tween 20. […] Data was reported as percentage of activity, with DMSO as 100%. Data was plotted and analyzed using Prism 8.

Observe how each entry below is paired with its result.
Compound	IC50
CCN(c1nc(OC[C@@]23CCCN2C[C@H](F)C3)nc2c(F)c(-c3ccc(F)c4sc(N)c(C#N)c34)c(C(F)(F)F)cc12)[C@H]1C[C@H](C)N(C(=O)COC)C1 (atropisomer, axis not shown)	< 100 nM
CCC(=O)N1CC[C@@H](N(CC)c2nc(OC[C@@]34CCCN3C[C@H](F)C4)nc3c(F)c(-c4ccc(F)c5sc(N)c(C#N)c45)c(C(F)(F)F)cc23)[C@H]1C (atropisomer, axis not shown) [Compound 523]	< 100 nM
CN(C)C(=O)c1nc2n(n1)CCN(c1nc(OC[C@@]34CCCN3C[C@H](F)C4)nc3c(F)c(-c4ccc(F)c5sc(N)c(C#N)c45)c(C(F)(F)F)cc13)C2	100 to 1000 nM
N#Cc1c(N)sc2c(F)ccc(-c3c(C(F)(F)F)cc4c(N5C[C@H]6C[C@H](O)[C@@H]5C6)nc(OC[C@@]56CCCN5C[C@H](F)C6)nc4c3F)c12	1000 to 10000 nM

Now examine the next entry.
// query IC50 value for entry N#Cc1c(N)sc2c(F)ccc(-c3c(C(F)(F)F)cc4c(N5CCO[C@@H](CO)C5)nc(OC[C@@]56CCCN5C[C@H](F)C6)nc4c3F)c12 100 to 1000 nM

---

Target: Avi-KRAS WT (1-169) GppNHp/RAF1 RBD-3xFLAG (52-151) (Homo sapiens)
Construct: Avi-KRAS WT (1-169)
Test: Raf1-KRAS WT-GppNHP disruption HTRF assay (Biological Example 1)
Format: binding
Settings: KRAS WT, GppNHp-loaded; Table 11
pIC50: −log10 of the molar value.
Overview of recorded pIC50 for various compounds

Observe how each entry below is paired with its result.
Compound	pIC50
N#Cc1c(N)sc2c(F)ccc(-c3c(C(F)(F)F)cc4c(N5CCN(CCO)C(=O)C5)nc(OC[C@@]56CCCN5C[C@H](F)C6)nc4c3F)c12	6.00 to 7.00
N#Cc1c(N)sc2c(F)ccc(-c3c(C(F)(F)F)cc4c(N5CCOCC(O)C5)nc(OC[C@@]56CCCN5C[C@H](F)C6)nc4c3F)c12 (stereo partly drawn)	> 7.00

Now examine the next entry.
// query pIC50 value for entry CC1(O)CCN(c2nc(OC[C@@]34CCCN3C[C@H](F)C4)nc3c(F)c(-c4ccc(F)c5sc(N)c(C#N)c45)c(C(F)(F)F)cc23)CC1 6.00 to 7.00

---

Target: Avi-KRAS G12D (1-169) GppNHp/RAF1 RBD-3xFLAG (52-151) (Homo sapiens, UniProt P01116, G12D)
Construct: Avi-KRAS G12D (1-169)
Sequence (P01116 1-169 isoform P01116-2 G12D): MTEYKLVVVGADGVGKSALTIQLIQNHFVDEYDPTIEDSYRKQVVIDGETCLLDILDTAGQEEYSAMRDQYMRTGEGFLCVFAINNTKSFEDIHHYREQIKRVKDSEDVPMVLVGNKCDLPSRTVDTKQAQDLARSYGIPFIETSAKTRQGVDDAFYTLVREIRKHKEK
Experiment: Raf1-KRAS G12D-GppNHP disruption HTRF assay (Biological Example 1)
Type: binding
Conditions: KRAS G12D-GppNHp/RAF1 RBD HTRF
Readout Kind: IC50

Observe how each entry below is paired with its result.
Molecule	Recorded Result
CCN(c1nc(OC[C@@]23CCCN2C[C@H](F)C3)nc2c(F)c(-c3ccc(F)c4sc(N)c(C#N)c34)c(C(F)(F)F)cc12)[C@@H]1C[C@@H](C)N(C(=O)N(C)C)C1 (atropisomer, axis not shown)	1000 to 10000 nM
C[C@@H]1CN(c2nc(OC[C@@]34CCCN3C[C@H](F)C4)nc3c(F)c(-c4ccc(F)c5sc(N)c(C#N)c45)c(C(F)(F)F)cc23)Cc2cc(C(=O)N(C)C)nn21	100 to 1000 nM
CCN(c1nc(OC[C@@]23CCCN2C[C@H](F)C3)nc2c(F)c(-c3ccc(F)c4sc(N)c(C#N)c34)c(C(F)(F)F)cc12)[C@H]1C[C@@H]2COC(=O)N2C1 (atropisomer, axis not shown)	< 100 nM

// query IC50 value for entry N#Cc1c(N)sc2c(F)ccc(-c3c(C(F)(F)F)cc4c(N5CC6COC[C@H]6C5)nc(OC[C@@]56CCCN5C[C@H](F)C6)nc4c3F)c12 (stereo partly shown) 100 to 1000 nM

// query IC50 value for entry N#Cc1c(N)sc2c(F)ccc(-c3c(C(F)(F)F)cc4c(N5CC6COC(C6)C5)nc(OC[C@@]56CCCN5C[C@H](F)C6)nc4c3F)c12 (stereo partly shown) 100 to 1000 nM

// query IC50 value for entry N#Cc1c(N)sc2c(F)ccc(-c3c(C(F)(F)F)cc4c(N5CCC[C@H](CO)C5)nc(OC[C@@]56CCCN5C[C@H](F)C6)nc4c3F)c12 100 to 1000 nM

Values from patent US20260042764A1
